Test summary: Luminescence activity of ZZ-fused WNanoKAZ mutants in crude enzyme solution (Example 10)
Assay type: biochemical
Condition set: ZZ-fused, pCold-ZZ-P- vector in E. coli, coelenterazine substrate, KAZ = 1.0
Measurement type: Relative luminescence activity (Imax)
Form rule: numeric answer, no unit written next to it.

Q. Return reported Relative luminescence activity (Imax); argument: WNanoKAZ-R166N: single amino acid-substituted WNanoKAZ mutant R166N; SEQ ID NO: 16 (protein) FTLADFVGDWQQTAGYNQDQVLEQGGLSSLFQALGVSVTPIQKVVLSGENGLKADIHVIIPYEGLSGFQMGLIEMIFKVVYPVDDHHFKVILHYGTLVIDGVTPNMIDYFGRPYEGIAVFDGKKITVTGTLWNGNKIIDERLINPDGSLLFRVTINGVTGWRLCENILA
A. 32
